System: Jurkat
assay.overview: Inhibition of calcium influx in jurkat (T cells).
Format: functional, cell-based
condition.label: Homo sapiens
Give measured pIC50 for each item. Keep answers brief.
Answers are plain numbers, as −log10 of the molar value.

Worked cases, answers included:
compound | tested.target | pIC50
COc1ccc(CCN2CCC[C@H]2COC(c2ccccc2)c2ccc(F)cc2)cc1 (stereo not given in full) | Jurkat | 5.52
COc1ccc(CCN2CCC[C@H]2COC(c2ccccc2)c2ccccc2)cc1 | Jurkat | 5.00
COc1ccc(CCN2CCC[C@H]2COCc2ccccc2)cc1 | Jurkat | 4.00
COc1ccc(CCN2CCCC(COC(c3ccccc3)c3ccc(Cl)cc3)C2)cc1 (stereo not given) | Jurkat | 5.00
COc1ccc(CCN2CCC[C@H]2COCc2ccc(Cl)cc2)cc1 | Jurkat | 4.60
COc1ccc(CCN2CCC[C@H]2COC(c2ccccc2)c2ccc(Br)cc2)cc1 (stereo not given in full) | Jurkat | 4.52
COc1ccc(CCN2CCC[C@H]2COC(c2ccc(C)cc2)c2ccc(C)cc2)cc1 | Jurkat | 5.52
COc1ccc(CCN2CCCCC2COC(c2ccc(Cl)cc2)c2ccc(Cl)cc2)cc1 (stereo not given) | Jurkat | 4.82

Give pIC50 for each listed item.
1. Oc1ccc(CCN2CCC[C@H]2COC(c2ccccc2)c2ccc(Cl)cc2)cc1 (stereo not given in full)
2. COc1ccc(CCN2CCC[C@H]2COC(c2ccc(F)cc2)c2ccc(F)cc2)cc1
3. COc1ccc(CCCN2CCC[C@H]2COC(c2ccccc2)c2ccc(Cl)cc2)cc1 (stereo not given in full)
4. CN1CCC[C@H]1COC(c1ccccc1)c1ccc(Cl)cc1 (stereo not given in full)
5. COc1ccc(CCN2CCC(COC(c3ccccc3)c3ccccc3)CC2)cc1
6. COc1cccc(CCN2CCC[C@H]2COC(c2ccccc2)c2ccc(Cl)cc2)c1 (stereo not given in full)

Result:
1: 5.00; 2: 5.52; 3: 6.00; 4: 4.52; 5: 4.70; 6: 5.52
